Data provenance: ChEMBL document CHEMBL5537123

experimentNotes: Acute toxicity in Wistar rat assessed as mortality rate at 300 mg/kg, po measured for 14 days
Format: organism-based
testContext: in vivo, time 14 day, read-out: Activity
measuredParameter: mortality at 336 h (%)
Form entry: value (%) — number only.

# query: mortality at 336 h of entry Cc1ccc(C(C)C)cc1OCc1cn(CCCCCOc2cc(=O)oc3ccccc23)nn1 67

###

targetOrTestSystem: Alpha-glucosidase (Saccharomyces cerevisiae S288c, UniProt P53341+P38158+P07265)
experimentNotes: Inhibition of Saccharomyces cerevisiae alpha-glucosidase using pNPG as substrate preincubated with compound for 20 mins followed by substrate addition measured after 1 hrs by absorbance based analysis
Assay type: protein assay
Listing: log10(IC50) of selected compounds
On a log10 scale: recorded IC50, unit µM.

// below: answered compounds
- querySmiles: "Cc1ccc(C(C)C)c(OCc2cn(CCCOc3ccc4ccc(=O)oc4c3)nn2)c1"
  reading: 1.86
- querySmiles: "Cc1ccc(C(C)C)cc1OCc1cn(CCCCOc2cc(=O)oc3ccccc23)nn1"
  reading: 1.42
- querySmiles: "Cc1ccc(C(C)C)c(OCc2cn(CCOc3ccc4ccc(=O)oc4c3)nn2)c1"
  reading: 1.75
- querySmiles: "Cc1ccc(C(C)C)cc1OCc1cn(CCOc2ccc3ccc(=O)oc3c2)nn1"
  reading: 1.81

# query: log10(IC50) of entry Cc1ccc(C(C)C)cc1OCc1cn(CCCOc2cc(=O)oc3ccccc23)nn1 1.84

# query: log10(IC50) of entry Cc1ccc(C(C)C)c(OCc2cn(CCCCCCOc3cc(=O)oc4ccccc34)nn2)c1 1.21

# query: log10(IC50) of entry Cc1ccc(C(C)C)c(OCc2cn(CCOc3cc(=O)oc4ccccc34)nn2)c1 1.79

# query: log10(IC50) of entry Cc1ccc(C(C)C)cc1OCc1cn(CCCCCOc2cc(=O)oc3ccccc23)nn1 0.64

###

experimentNotes: Selectivity index, ratio of IC50 for inhibition of porcine pancreatic alpha-amylase using pNPG as substrate to IC50 for inhibition of Saccharomyces cerevisiae alpha-glucosidase using pNPG as substrate
Listing: Ratio IC50 of selected molecules
Returns: the value as a bare number; no unit string appended.

// below: answered molecules
- querySmiles: "Cc1ccc(C(C)C)c(OCc2cn(CCCCOc3cc(=O)oc4ccccc34)nn2)c1"
  Ratio IC50: 3.06
- querySmiles: "Cc1ccc(C(C)C)c(OCc2cn(CCCCCOc3cc(=O)oc4ccccc34)nn2)c1"
  Ratio IC50: 7.61
- querySmiles: "Cc1ccc(C(C)C)cc1OCc1cn(CCCCCCOc2cc(=O)oc3ccccc23)nn1"
  Ratio IC50: 7.51

# query: Ratio IC50 of entry Cc1ccc(C(C)C)cc1OCc1cn(CCCCCOc2cc(=O)oc3ccccc23)nn1 8.65

###

Listing: pIC50 of selected molecules
experimentNotes: Inhibition of alpha-glucosidase (unknown origin)
Set-up: species or system Homo sapiens
Units for pIC50: none; it is -log10 of a concentration expressed in mol/L.

// below: answered molecules
- querySmiles: "Cc1ccc(C(C)C)cc1OS(=O)(=O)c1ccc(F)cc1"
  reading: 5.59
- querySmiles: "Cc1ccc(CNC(=O)Cn2cc(COc3cc(=O)oc4ccccc34)nn2)cc1"
  reading: 5.46
- querySmiles: "O=C(Cn1cc(COc2ccc3ccc(=O)oc3c2)nn1)NCc1cccc(Br)c1"
  reading: 6.27

Turning now to a further molecule:
# query: pIC50 of entry Cc1ccc(C(C)C)c(OS(=O)(=O)c2ccc(F)cc2)c1 5.64

###

experimentNotes: Acute toxicity in Wistar rat assessed as lethal dose measured for 14 days
testContext: in vivo, time 14 day
measuredParameter: LD50 at 336 h (mg/kg)
Form entry: value (mg/kg) — number only.

# query: LD50 at 336 h of entry Cc1ccc(C(C)C)cc1OCc1cn(CCCCCOc2cc(=O)oc3ccccc23)nn1 300

###

targetOrTestSystem: Alpha-amylase (Sus scrofa domesticus)
Sequence (Q7M328 whole entry): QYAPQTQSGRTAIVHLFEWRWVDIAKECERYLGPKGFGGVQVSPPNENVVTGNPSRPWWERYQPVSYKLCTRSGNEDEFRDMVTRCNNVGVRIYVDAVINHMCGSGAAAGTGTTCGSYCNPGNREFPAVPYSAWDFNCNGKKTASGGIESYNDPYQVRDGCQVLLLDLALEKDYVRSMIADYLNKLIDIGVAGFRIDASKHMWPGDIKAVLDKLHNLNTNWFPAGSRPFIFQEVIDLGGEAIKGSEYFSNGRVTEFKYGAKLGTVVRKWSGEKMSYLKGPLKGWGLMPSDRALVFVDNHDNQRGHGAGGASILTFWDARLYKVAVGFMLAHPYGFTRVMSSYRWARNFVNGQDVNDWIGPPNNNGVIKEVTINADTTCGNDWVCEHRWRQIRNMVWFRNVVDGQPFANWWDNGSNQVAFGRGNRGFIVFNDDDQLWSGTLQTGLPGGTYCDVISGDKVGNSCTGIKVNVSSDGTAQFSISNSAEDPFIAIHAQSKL
Listing: IC50 of selected compounds

# query: IC50 of entry Cc1ccc(C(C)C)c(OCc2cn(CCCCCCOc3cc(=O)oc4ccccc34)nn2)c1 > 100 µM

# query: IC50 of entry Cc1ccc(C(C)C)c(OCc2cn(CCCCCCOc3ccc4ccc(=O)oc4c3)nn2)c1 > 100 µM

# query: IC50 of entry Cc1ccc(C(C)C)cc1OCc1cn(CCCCCOc2cc(=O)oc3ccccc23)nn1 37.4 µM

###

experimentNotes: Cytotoxicity against mouse L929 cells assessed reduction in cell viability incubated for 24 hrs by MTT assay
Type: toxicity, cell-based
measuredParameter: IC50 at 24 h

// below: answered compounds
- querySmiles: "Cc1ccc(C(C)C)c(OCc2cn(CCCCCOc3cc(=O)oc4ccccc34)nn2)c1"
  IC50 at 24 h: "> 100 µM"
- querySmiles: "Cc1ccc(C(C)C)cc1OCc1cn(CCCCCOc2cc(=O)oc3ccccc23)nn1"
  IC50 at 24 h: "> 100 µM"

Turning now to a further compound:
# query: IC50 at 24 h of entry Cc1ccc(C(C)C)cc1OCc1cn(CCCCCCOc2cc(=O)oc3ccccc23)nn1 > 100 µM

###

targetOrTestSystem: Alpha-amylase (Sus scrofa domesticus, UniProt Q7M328)
Sequence (Q7M328 whole entry): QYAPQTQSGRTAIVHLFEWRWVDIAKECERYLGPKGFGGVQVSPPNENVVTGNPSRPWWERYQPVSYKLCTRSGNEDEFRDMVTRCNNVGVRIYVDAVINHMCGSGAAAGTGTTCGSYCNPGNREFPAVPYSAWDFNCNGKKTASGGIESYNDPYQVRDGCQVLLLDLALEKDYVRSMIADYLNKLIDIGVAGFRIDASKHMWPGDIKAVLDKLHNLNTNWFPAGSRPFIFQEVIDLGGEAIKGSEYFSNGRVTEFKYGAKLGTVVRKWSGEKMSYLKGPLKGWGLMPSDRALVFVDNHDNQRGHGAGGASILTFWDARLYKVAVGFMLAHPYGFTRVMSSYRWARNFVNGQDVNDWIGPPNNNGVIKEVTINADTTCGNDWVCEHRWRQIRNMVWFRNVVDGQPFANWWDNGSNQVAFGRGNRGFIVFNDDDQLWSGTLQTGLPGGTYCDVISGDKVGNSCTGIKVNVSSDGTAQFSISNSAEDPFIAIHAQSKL
pIC50: −log10 of the molar value.
Listing: pIC50 of selected compounds

- querySmiles: "Cc1ccc(C(C)C)cc1OCc1cn(CCCCCCOc2cc(=O)oc3ccccc23)nn1"
  targetOrTestSystem: "Alpha-amylase (Sus scrofa domesticus, UniProt Q7M328)"
  reading: 4.16
- querySmiles: "Cc1ccc(C(C)C)cc1OCc1cn(CCCOc2ccc3ccc(=O)oc3c2)nn1"
  targetOrTestSystem: "Alpha-amylase (Sus scrofa domesticus, UniProt Q7M328)"
  reading: "< 4.00"
- querySmiles: "Cc1ccc(C(C)C)c(OCc2cn(CCCOc3ccc4ccc(=O)oc4c3)nn2)c1"
  targetOrTestSystem: "Alpha-amylase (Sus scrofa domesticus, UniProt Q7M328)"
  reading: "< 4.00"
- querySmiles: "Cc1ccc(C(C)C)cc1OCc1cn(CCOc2ccc3ccc(=O)oc3c2)nn1"
  targetOrTestSystem: "Alpha-amylase (Sus scrofa domesticus, UniProt Q7M328)"
  reading: "< 4.00"

Turning now to a further compound:
# query: pIC50 of entry Cc1ccc(C(C)C)cc1OCc1cn(CCCOc2cc(=O)oc3ccccc23)nn1 < 4.00

###

Listing: log10 IC50 of selected compounds
targetOrTestSystem: Alpha-glucosidase (Saccharomyces cerevisiae S288c, UniProt P53341+P38158+P07265)
experimentNotes: Inhibition of Saccharomyces cerevisiae alpha-glucosidase using pNPG as substrate preincubated with compound for 20 mins followed by substrate addition measured after 1 hrs by absorbance based analysis
Type: protein assay
On a log10 scale: recorded IC50, unit µM.

// below: answered compounds
- querySmiles: "Cc1ccc(C(C)C)c(OCc2cn(CCCCCOc3cc(=O)oc4ccccc34)nn2)c1"
  reading: 0.88
- querySmiles: "Cc1ccc(C(C)C)c(OCc2cn(CCCCOc3cc(=O)oc4ccccc34)nn2)c1"
  reading: 1.40

# query: log10 IC50 of entry Cc1ccc(C(C)C)cc1OCc1cn(CCCCCCOc2cc(=O)oc3ccccc23)nn1 0.97

# query: log10 IC50 of entry Cc1ccc(C(C)C)cc1OCc1cn(CCOc2cc(=O)oc3ccccc23)nn1 1.90

# query: log10 IC50 of entry Cc1ccc(C(C)C)c(OCc2cn(CCCOc3cc(=O)oc4ccccc34)nn2)c1 1.58
